- TARGET_UNDER_TEST: Sodium-dependent serotonin transporter (Homo sapiens)
- Sequence (P31645 whole entry): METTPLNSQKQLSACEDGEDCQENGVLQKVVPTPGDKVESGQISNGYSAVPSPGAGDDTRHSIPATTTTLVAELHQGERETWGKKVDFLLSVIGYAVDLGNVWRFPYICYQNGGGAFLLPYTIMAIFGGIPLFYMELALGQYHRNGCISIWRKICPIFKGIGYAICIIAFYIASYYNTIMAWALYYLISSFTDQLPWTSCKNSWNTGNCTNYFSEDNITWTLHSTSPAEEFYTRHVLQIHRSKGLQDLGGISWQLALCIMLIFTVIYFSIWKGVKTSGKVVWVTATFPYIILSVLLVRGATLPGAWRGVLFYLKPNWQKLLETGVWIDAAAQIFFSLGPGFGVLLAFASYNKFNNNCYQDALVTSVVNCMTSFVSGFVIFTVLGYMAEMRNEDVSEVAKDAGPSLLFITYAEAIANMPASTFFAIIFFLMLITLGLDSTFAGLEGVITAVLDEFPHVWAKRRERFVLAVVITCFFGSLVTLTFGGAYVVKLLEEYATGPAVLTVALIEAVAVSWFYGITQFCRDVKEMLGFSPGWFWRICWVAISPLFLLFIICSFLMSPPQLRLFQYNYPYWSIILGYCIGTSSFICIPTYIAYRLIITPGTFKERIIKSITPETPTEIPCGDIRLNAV
- ASSAY_NAME: Displacement of [N-methyl-3H]citalopram from human recombinant SERT expressed in pig LLCPK cells after 2 hrs by liquid scintillation counting
- Assay type: cell-based
ATTRIBUTE_MEASURED: pKi
// pKi is dimensionless: -log10 of concentration (M)

The cases that follow already have their pKi on record.
>  <COMPOUND>
COC[C@@]12CNCC[C@]1(c1ccc3ccccc3c1)C2 (single isomer, unassigned; 28)

>  <pKi>
9.90

$$$$
>  <COMPOUND>
CC#CNC(=O)[C@@]12CNCC[C@]1(c1ccc(Cl)c(Cl)c1)C2 (racemic)

>  <pKi>
7.00

$$$$
>  <COMPOUND>
OC[C@@]12CNCC[C@]1(c1ccc(Cl)c(Cl)c1)C2 (racemic)

>  <pKi>
7.70

$$$$

Prompt line: Request: pKi, test system Sodium-dependent serotonin transporter (Homo sapiens), entry COC[C@@H]1[C@@H]2CCNC[C@]12c1ccc(Cl)c(Cl)c1 (racemic)
Response line: 7.50

Prompt line: Note, next up: Clc1ccc([C@]23CCNC[C@@]2(COCC2CC2)C3)cc1Cl (relative stereo; 35)
Response line: 8.40

Prompt line: Note, next up: `COC[C@@]12CN(C)CC[C@]1(c1ccc(Cl)c(Cl)c1)C2`
Response line: 7.90

Prompt line: Note, next up: COC[C@@]12CNCC[C@]1(c1ccc(OC(F)(F)F)cc1)C2 (racemic)
Response line: 8.50

Prompt line: Note, next up: `COC[C@@]12CN(C(C)C)CC[C@]1(c1ccc(Cl)c(Cl)c1)C2`
Response line: 6.20

Prompt line: Note, next up: COC[C@@]12CNCC[C@]1(c1ccc3ccccc3c1)C2 (single isomer, unassigned; 27)
Response line: 9.00

Prompt line: Note, next up: Clc1ccc([C@@]23CCNC[C@@H]2C3)cc1Cl (single isomer, unassigned)
Response line: 7.90

Prompt line: Note, next up: COC[C@@]12CNCC[C@]1(c1ccc(Cl)c(Cl)c1)C2 (relative stereo; 17) [GSK1360707]
Response line: 9.20

Prompt line: Note, next up: Clc1ccc([C@]23CNCC[C@H]2C3)cc1Cl (relative stereo; 4)
Response line: 7.10
